Numbers sourced from patent US20190367619A1.

Molecular target: T1, human galectin-10-His (recombinant human galectin-10 with TEV-cleavable N-terminal His-tag) (human)
T1 construct: SEC-MALLS: dimer in solution; also called Gal10-His; humanGal10-His
T1 chain: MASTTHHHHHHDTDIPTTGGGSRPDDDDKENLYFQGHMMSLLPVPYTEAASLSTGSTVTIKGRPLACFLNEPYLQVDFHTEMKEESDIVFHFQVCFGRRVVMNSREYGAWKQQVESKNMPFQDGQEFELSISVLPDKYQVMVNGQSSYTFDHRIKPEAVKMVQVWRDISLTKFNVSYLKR
Experiment: BLI tandem on galectin-10-His; buffer in place of the saturating antibody
ASSAY READOUT: binding signal (nm)
Enter your answer as a number in nm; do not include the unit.

Lab note: 6E10 mouse IgG1 (antibody, V domains shown, also called 6E010; 6E10 mIgG1) VH: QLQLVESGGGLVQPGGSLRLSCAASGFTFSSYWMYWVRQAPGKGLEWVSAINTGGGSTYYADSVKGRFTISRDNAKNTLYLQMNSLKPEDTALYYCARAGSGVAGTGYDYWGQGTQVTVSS VL: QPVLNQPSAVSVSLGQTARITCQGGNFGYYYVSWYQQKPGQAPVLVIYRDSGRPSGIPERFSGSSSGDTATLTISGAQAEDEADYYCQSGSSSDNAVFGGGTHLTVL gave binding signal (nm) of 1.38
